Below: a set of entries, each annotated with reported melting point.

Known results for molecules:
# Molecule, Test value
rows = [
    ("O=C1c2c(Cl)ccc(Cl)c2-c2nn(CCNCCO)c3ccc(NCCNCCO)c1c23", "196 °C"),
    ("CC(C)Cc1ccc(C(C)C(N)=O)cc1 (stereo not given)", "84 to 86 °C"),
    ("Cc1oc(-c2ccccc2)nc1COc1ccc(CON=C(CCCC(C)(C)C(=O)O)c2ccccc2)cc1", "111 to 112 °C"),
    ("COc1c(C)c(Cl)c(C)c(Cl)c1CNC(=O)CCl", "205 to 206 °C"),
]

Bench note: what melting point did CC(C)n1nc(CC(=O)c2ccc(F)cc2)ccc1=O show?
67 to 68 °C

* * *

Reported metric: melting point

Below: 4 compounds and their reported melting point.
# Compound, melting point
measured = [
    ("Cc1cc(C#N)ccc1-c1cc(=O)c2c(O)cc(O)c([C@@H]3CCN(C)[C@H]3CO)c2o1", "145 to 147 °C"),
    ("COCC1CC(=O)c2nc(C)c(C)n2C1 (stereo unspecified)", "103 to 104 °C"),
    ("O=[N+]([O-])c1ccc(CF)cc1[N+](=O)[O-]", "37.5 to 38.5 °C"),
    ("CN(C)C1(c2ccccc2)CCC(=CC(=O)NCCc2ccccc2)CC1 (stereo unspecified)", "153 to 155 °C"),
]

If you can, please state the reported melting point value of FC(F)(F)c1cccc(-c2ncn(CC3CC3)c2-c2ccncc2)c1 .
106 °C

Check COc1ccc(C=Nc2ccccc2SCc2ncon2)cc1OC too.
146 °C

* * *

# maps each entry to its melting point

Reference set (3 entries):
# Molecule, Reported metric, Test value
records = [
    ("N#Cc1cc2cccnc2nc1O", "melting point", "300 °C"),
    ("COc1ccc([C@@H]2Sc3ccccc3N(CCN(C)C)C(=O)[C@@H]2OC(=O)c2ccc([N+](=O)[O-])cc2)cc1", "melting point", "113 to 114 °C"),
    ("COC(=O)n1cc2c(c1)C(OC(C)=O)N=C(c1ccccc1Cl)c1cc(Cl)ccc1-2 (centres undefined)", "melting point", "175 to 177 °C"),
]

Let's switch to this molecule now.
Given the entry NC(=O)c1cc(F)c(F)c(Cl)c1Cl , report its measured melting point.
153 to 155 °C

* * *

Readings of melting point for the listed molecules

Below: 4 molecules and their reported melting point.
# Molecule, Reported metric, Test value
data = [
    ("CN(C)CCCNC(=O)c1ccc(-c2nnc(CSCCOc3ccc(Cl)cc3Cl)o2)cc1", "melting point", "140 to 141 °C"),
    ("CC(C)n1nc(-c2c(OC3CCC3)nc(N)nc2-c2ccccc2)ccc1=O", "melting point", "161 to 162 °C"),
    ("CC12CCC(O)CC1=CCC1C2CCC2(C)C(c3ccco3)=CCC12 (stereo not given)", "melting point", "105 to 116 °C"),
    ("Cn1cc(C(=O)NCc2ccc(Cl)cc2)c(=O)c2cc(CN3CCOCC3)cc(C#CCN3CCS(=O)(=O)CC3)c21", "melting point", "220 to 222 °C"),
]

Consider the record given below.
Please give the measured melting point for this molecule: O=C(CN(Cc1ccc(OCc2ccccc2)cc1)C(=O)[C@H](Cc1c[nH]cn1)NC(=O)OCc1ccccc1)NCCCCc1ccccc1
58 to 61 °C

* * *

In this section, each of the compounds is paired with its reported melting point.

What value of melting point has been reported for the following compound? Cc1[nH]c(=O)[nH]c1C(=O)c1ccc(N2CCCCC2)cc1
260 to 263 °C

What do we get for CC1=NSc2c(F)c(F)c(F)c(F)c2N1Cc1ccc(-c2ccccc2C(=O)OC(C)(C)C)cc1 ?
177 to 179 °C

Proceed to O=C(O)Cn1c2ccccc2c2sccc(=O)c21
275 to 278 °C

What would you report for CN(C)CCNc1c2c(nc3ccccc13)CCCC2O (stereo unspecified) ?
135 to 138 °C

Another compound: COc1ccc(C(=O)Nc2ccc3ccc(OC(C)C)nc3n2)cc1
78 °C

Also COC(=O)c1cc2c3cccc(Cl)c3n(C)c2s1 ?
166 to 168 °C

* * *

Here, each record is paired with measured melting point data.

# Compound, melting point
data = [
    ("C=CCn1c(=O)c2cc(C(=O)OCC)cn2c2ccccc21", "177 to 178 °C"),
]

Recorded melting point of CCCC/C(=C\C=C\C(=O)O)c1ccc(OC)cc1 , please.
138 to 140 °C

* * *

The reader will find reported melting point values listed item by item below.

# Compound, melting point
data = [
    ("COP(=O)(CCC(C)(C)c1ccc(O)cc1)OC", "98 to 101 °C"),
    ("O=C(CCc1cc(C2CCCCC2)c(O)c(C2CCCCC2)c1)NCCCCCCNC(=O)CCc1cc(C2CCCCC2)c(O)c(C2CCCCC2)c1", "28 °C"),
    ("CCCCCCCCCCCCCCCc1cc2cc(C(=O)OCCCC)ccc2[nH]1", "79 to 80 °C"),
    ("CC1=C(C(=O)OC2CN(C(c3ccccc3)c3ccccc3)C2)C(c2cccc([N+](=O)[O-])c2)C(C(=O)OC(C)C)=C(N)N1 (stereo unspecified)", "104 to 107 °C"),
    ("COC(=O)c1ccc2c(c1)OC(C)(C)C(=O)N2C(C)C", "62 to 63 °C"),
]

I'd like to know its melting point. The compound in question is COC(=O)c1ccc(C(=O)NCc2cc(O)cc(O)c2)cc1Cl
152 to 155 °C

Now try CCOC(=O)c1ccc(OCCCCCCCCC#CCCCCOc2ccc(Cl)cc2)cc1 .
52 to 53 °C

And CC(c1ccccc1)c1cccnn1 (stereo unspecified) ?
43 to 48 °C

Also check N#CCCNC(=O)C1=CC(CF)(CF)Oc2ccc(C(F)(F)F)cc21
129 to 131 °C

Would you kindly repeat that for CCC(=O)Nc1nc(-c2ccc(OC(F)F)cc2)cs1 ?
186 to 188 °C

* * *

Entries and their melting point values follow.

Study these solved cases before continuing.
# Molecule, melting point
records = [
    ("CCOC(=O)C(Cl)=Cc1cc(-n2c(Cl)nc(C(F)(F)F)cc2=O)ccc1Cl", "114 to 115 °C"),
    ("CCOCc1nc2c(N)nc3cc(-c4cccc(C(=O)N5CCOCC5)c4)cnc3c2n1CC(C)(C)F", "167 to 168 °C"),
]

State the recorded melting point for this entry: CC(=O)N1CCN(c2ccc(-c3ccn[nH]3)cc2)CC1
257 to 259 °C

Another: CSC1NC(=O)N(Cc2ccccc2)C(=O)N1N=C(C)C (stereo not given)
148 to 150 °C

Item: COc1cc(C)c(C=O)cc1OCc1ccccc1
107 to 109 °C

Also need CCCCCCCNC(=O)Nc1ccc(O)cc1C(=O)NCC1CCN(C(c2ccccc2)c2ccccc2)CC1 , thanks.
165 to 167 °C

What do we get for CCOCc1nc2c(N)nc3cc(Br)ccc3c2n1CCCCNC(=O)NC(C)C ?
211 °C

Now the molecule CCNC(=O)Nc1nc2cc(-c3c(C)noc3C)cc(C(=O)NCC)n2n1
238 to 241 °C

Input O=C1Nc2ccc(F)cc2C1c1ncnc2c1cnn2C1CCCC1 (stereo not given)
254 to 257 °C

For COc1ccc(S(=O)(=O)N2CCc3cccc(-c4ccc(F)c(F)c4)c32)cc1 then?
180 to 181 °C

* * *

# melting point values compiled below

Example results:
# Entry smiles, Reported metric, Test value
data = [
    ("CN1CCN(c2ccc3ccccc3n2)CC1", "melting point", "110 to 112 °C"),
    ("CCCC(=O)c1cnc2c(OC)cccc2c1Nc1ccc(O)c(F)c1", "melting point", "266 to 268 °C"),
    ("COc1ccc(OC)c(Nc2c(-c3ccc(S(C)(=O)=O)cc3)cnn(CC(F)(F)F)c2=O)c1", "melting point", "95 to 96 °C"),
]

Given the entry CCOC(=O)CN(C(=O)CN1C(=O)c2ccccc2C1=O)c1ccc(Cl)c(COc2cccc3ccc(C)nc23)c1Cl , report its measured melting point.
211 to 213 °C

// same read-out, input: CC(=O)Nc1ccc(F)c(-c2cccnc2)c1F
154 to 155 °C

What about CN1CCN(C)c2c(cccc2[N+](=O)[O-])C1=O ?
146 to 147 °C

* * *

The following compounds are shown together with reported melting point values.

# Compound, Test value
rows = [
    ("COc1ccc2cccc(C#N)c2c1", "62 to 66 °C"),
    ("CC(C)[Si](Oc1cc(C=O)c2c(c1)C1(C)CCN(C)C1N2C)(C(C)C)C(C)C (stereo not drawn)", "42 to 45 °C"),
    ("CN(C)C(=O)c1nc2n(n1)-c1ccc(Cl)cc1C(c1ccccc1)=NC2", "135 to 137 °C"),
]

melting point for CC(C)c1cccc(C(C)C)c1NC(=O)CN1CCN(CCSc2nc3cccc(CO)c3o2)CC1 ?
138 to 139 °C

Now the compound CN[C@@H]1CN(c2c(F)cc3c(=O)c(C(=O)O)cn([C@@H]4C[C@@H]4F)c3c2C)C[C@@H]1C(C)C
168 to 171 °C

Same again, this time with CN1CCC(c2cc3c(N(C)C)cccc3c(=O)[nH]2)CC1
216 to 218 °C

Please answer likewise for c1ccc2cc(CSCc3ccc4ccccc4c3)ccc2c1
119 to 121 °C

Lookup C#CCN1CCCc2ccc(OC(=O)Nc3ccccc3OC)cc21
83 °C

Another compound: O=C(O)[C@@H](Cc1ccccc1)Oc1c(Br)cc(-c2c3ccccc3c(C(F)(F)F)c3sc4ccccc4c23)cc1Br
109 to 143 °C
